# tested on: Dengue virus envelope protein domain III (ED3), on intact DENV serotype 2 virions (Dengue virus 2 (New Guinea C), UniProt P14340 P14340:576-674)
# Sequence (P14340 576-674, one chain of several): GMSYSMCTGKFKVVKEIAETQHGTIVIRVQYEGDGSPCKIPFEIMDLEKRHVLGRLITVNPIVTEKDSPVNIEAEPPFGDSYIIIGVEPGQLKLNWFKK
# assay summary: inhibition; plaque reduction on Vero cells, DENV2 NGC in human serum, 37 C
# run parameters: protein: virion; tags: none
# Protocol: The in vitro inhibition of DENV through standard antiviral, plaque forming EC₅₀ assays was also examined. DENV viral particles were incubated with different concentrations of each inhibitor in human serum and the remaining infectivity was determined by a plaque reduction assay. The dose-dependent inhibition of DENV for the monovalent aptamer and each of the scaffold-aptamer complexes was examined (FIG. 5A). […]
observable: pEC50
Please treat pEC50 as minus the base-10 logarithm of the molar concentration.

Quick note, pEC50 for GCACCGGGAGGGAGGGAGGGCTTTT (ssDNA) [monovalent ED3-binding DNA aptamer] landed at 4.82
